Readings of OD for the listed binders
Molecular target: hAng2-Fc (PharmAbcine) (human) (UniProt O15123)
Sequence (O15123 19-496 limits assumed): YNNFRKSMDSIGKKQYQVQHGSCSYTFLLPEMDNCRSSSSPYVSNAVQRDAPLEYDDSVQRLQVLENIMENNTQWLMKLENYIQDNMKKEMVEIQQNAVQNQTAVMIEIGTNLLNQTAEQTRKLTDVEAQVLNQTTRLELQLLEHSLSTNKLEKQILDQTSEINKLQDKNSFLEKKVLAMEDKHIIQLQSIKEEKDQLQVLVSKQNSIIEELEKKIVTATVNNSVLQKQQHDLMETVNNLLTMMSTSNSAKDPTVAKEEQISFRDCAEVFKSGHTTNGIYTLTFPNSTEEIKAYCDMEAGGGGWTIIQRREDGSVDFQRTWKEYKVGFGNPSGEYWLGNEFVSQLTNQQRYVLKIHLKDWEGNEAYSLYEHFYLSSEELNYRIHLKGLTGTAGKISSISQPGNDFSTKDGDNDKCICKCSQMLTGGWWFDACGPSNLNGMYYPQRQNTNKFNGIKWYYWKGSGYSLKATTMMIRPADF
Test: phage ELISA, antigen coated at 1 µg/ml, anti-M13-HRP
API: value field is a number in OD; no unit string.

>  <Binder>
No. 46 monoclonal scFv phage (scFv, V domains shown, not shown: large carriers, scFv linker; phage coat protein fusion) VH: QVQLVESGGGLVQPGRSLRLSCAASGFTFDDCAMHWVRQAPGKGLEWVSGISGNSKNVAYADSVKGRFSISRDDAKNSLYLQMNSLRAEDTAVYYCARDPAYSQFDYWGQGTLITVSS VL: QSALTQPPSLSATPGQRVTISCSGSSSNVGGYPVNWYQQVPGAAPKLLMYTDYKRPSGVPDRFFGSKSGTSASLAISGLQSEDEADYYCATWDDNLNGYVFGTGTKVTVLG

>  <Result units>
OD

>  <OD>
1.19

$$$$

Any idea what OD was measured for No. 41 monoclonal scFv phage (scFv, V domains shown, not shown: large carriers, scFv linker; phage coat protein fusion) VH: QVQLVESGGGLVQPGGSLRLSCEASGFAFGRYEMNWVRQAPGKGLEWIAYIDTGGGAKVYADSVKGRFTISRDDSKNSLYLQMNSLRAEDTAVYYCTTEGLMNGLHFDMWGQGTMITVSS VL: DIQMTQSPSTLSASVGDRVAITCRASQAISTWLAWYQQKPGKAPKLLIYTASTLESGVPSRFSGSGSGTDFTLTINSLQPDDFATYYCQQLNSYPYTFGGGTKVEIKR ? 0.825

Which OD is reported for this binder? No. 8 monoclonal scFv phage (scFv) QVQLVESGGGLVKPGGSLRLSCAASGFTFSSYSMNWVRQAPGKGLEWVSSISASDGATYYADSVRGRFTISRDNSRSTLYLQMNSLRAEDTAVYYCAKILAGYSGPMGGMDVWGQGTTVTVSSDIQMTQSPSSLSASVGDRVTITCRASRDISNYLAWYQQKPGKAPKSLIYGASNLQSGVSSQFSGSGSGTDFTLTINSLQPEDSATYYCQQYYSYPLTFGGGTKVDIKR 1.36

Look up OD: No. 3 monoclonal scFv phage (scFv, V domains shown, not shown: large carriers, scFv linker; phage coat protein fusion) VH: QMQLVQSGGGLVQPGRSLKLSCAASGFSFDDYAMHWVRQAPGKGLEWVATIKDDGSQTYYVDSVKGRFTISRDNAKSSLFLQMNSLRAEDTAVYYCTTEGLMNGLHFDMWGQGTMVTVSS VL: LVLTQPPSVSGAPGQGVTISCTGSSSNIGAGYDVHWYQQFPGTAPKLLISGNNNRPSGLPDRFSGSKSGTSASLAITGLQAEDEADYYCQSYDSRLGVVFGGGTKLTVLG 1.9

I would be grateful if you could share the reported OD for No. 4 monoclonal scFv phage (scFv) QVQLVESGAEVKRPGESLRISCKTSGYSFTSYWIHWVRQMPGKELEWMGSIYPGNSDTRYSPSFQGHVTISADSSSSTAYLQWSSLKASDTAMYYCTTEGLMNGLHFDMWGQGTMVTVSSDIVMTQTPLSLPVTPGEPASISCRSSQSLLHSLGDNYLDWYLQKPGQSPQLLIYLGSKRAAGVPDRFSGSGSGTDFTLKISRVEAEDVGVYYCMQSLQTPPYTFGQGTKLEIKR . 0.835
